- target-desc: PDZRN4_1, Q6ZMN7
- Sequence (Q6ZMN7 213-318): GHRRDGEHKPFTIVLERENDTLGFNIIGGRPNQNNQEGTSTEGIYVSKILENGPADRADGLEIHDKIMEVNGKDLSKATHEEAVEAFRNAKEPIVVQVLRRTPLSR
- test-description: holdup assay
- Design: key: below the threshold = too weak to quantify, mostly under pKd 3.1 to 4
- condition-context: plain residues with an end cap or a label only (N-terminal biotin on a linker: ado-ado)
Listing of recorded pKd by entry.
reported-endpoint: pKd

>>> df
                        binder  reported_endpoint  readout_number
0   VKPQVSESKL [ACOT8, O14734]                pKd            3.83
1  PRAEAEDSFL [PDGFRB, P09619]                pKd            3.69
2  RRISSLESEV [GRIN2C, Q14957]                pKd            4.17

Values from paper PMC9482650
